# credit: patent US7045532B2

For each of the compounds below, state its pKi.
# TESTED SYSTEM: ACE-2 (Homo sapiens, UniProt Q9BYF1)
# Construct: a stop codon inserted after the serine immediately preceding the transmembrane domain; made in house; host or cells: CHO K1 cells (transient transfection, purified from conditioned medium)
# Sequence (Q9BYF1 18-740 limits assumed): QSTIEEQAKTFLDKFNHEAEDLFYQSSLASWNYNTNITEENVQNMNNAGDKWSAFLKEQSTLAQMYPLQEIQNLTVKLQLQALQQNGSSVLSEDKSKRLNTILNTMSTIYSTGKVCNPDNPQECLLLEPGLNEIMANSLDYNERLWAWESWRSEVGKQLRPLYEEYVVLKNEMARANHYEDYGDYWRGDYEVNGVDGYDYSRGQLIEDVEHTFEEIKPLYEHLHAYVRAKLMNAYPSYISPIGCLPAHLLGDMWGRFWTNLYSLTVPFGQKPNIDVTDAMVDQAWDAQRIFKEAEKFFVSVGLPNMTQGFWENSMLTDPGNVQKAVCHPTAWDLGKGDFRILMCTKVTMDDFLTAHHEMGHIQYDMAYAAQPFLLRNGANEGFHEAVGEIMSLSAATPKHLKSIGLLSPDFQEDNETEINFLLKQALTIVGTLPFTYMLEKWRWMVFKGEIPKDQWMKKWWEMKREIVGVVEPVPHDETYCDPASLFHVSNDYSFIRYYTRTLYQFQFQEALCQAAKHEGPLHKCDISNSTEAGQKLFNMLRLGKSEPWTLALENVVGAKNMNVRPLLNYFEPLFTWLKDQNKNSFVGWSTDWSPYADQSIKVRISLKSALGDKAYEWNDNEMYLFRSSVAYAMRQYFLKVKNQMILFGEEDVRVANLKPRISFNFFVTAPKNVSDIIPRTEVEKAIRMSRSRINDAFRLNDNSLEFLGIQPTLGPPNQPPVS
# ASSAY NAME: ACE-2 Competitive Substrate Assay (ACS Assay)
# Assay type: biochemical
# STATED CONDITIONS: Ki class; compounds tested in 5% DMSO, 12 compound concentrations, Ki=Kiapp/(1+[S]/Km); read-out: Human ACE-2 Activity
pKi: −log10 of the molar value.

Any idea what its pKi is? The compound is `CC(C)C[C@H](N[C@@H](CNC(=O)c1ccc2ccccc2c1)C(=O)O)C(=O)O` < 6.30

Any idea what its pKi is? The compound is `CC(C)C[C@H](N[C@@H](Cc1ccc(O)cc1)C(=O)O)C(=O)O` < 6.30

Any idea what its pKi is? The compound is `CC(C)C[C@H](N[C@@H](CC(=O)Nc1nc2ccc(F)cc2s1)C(=O)O)C(=O)O` > 7.00

Any idea what its pKi is? The compound is `CC(C)C[C@H](N[C@@H](Cc1ccc(-c2cccc(Cl)c2)o1)C(=O)O)C(=O)O` < 6.30

Any idea what its pKi is? The compound is `CC(C)C[C@H](N[C@@H](Cc1cccc(OCc2ccc(Cl)cc2)c1)C(=O)O)C(=O)O` 6.30 to 7.00

Any idea what its pKi is? The compound is CC(C)CC(N[C@@H](Cc1cncn1Cc1ccc(C(C)(C)C)cc1)C(=O)O)C(=O)O (single isomer, unassigned) [HZ] < 6.30

Any idea what its pKi is? The compound is COc1cccc(Cn2cncc2C[C@H](NC(CC(C)C)C(=O)O)C(=O)O)c1OC (single isomer, unassigned) [IO] > 7.00

Any idea what its pKi is? The compound is Cc1nc(C[C@H](NC(CC(C)C)C(=O)O)C(=O)O)c(Cc2ccccc2)s1 (single isomer, unassigned) [KC] < 6.30

Any idea what its pKi is? The compound is `CC(C)C[C@H](N[C@@H](Cn1ccn(Cc2cccc(Cl)c2)c1=O)C(=O)O)C(=O)O` > 7.00

Any idea what its pKi is? The compound is `CC(C)C[C@H](N[C@@H](Cc1cccc(OCc2cccc(Cl)c2)c1)C(=O)O)C(=O)O` > 7.00

Any idea what its pKi is? The compound is `CC(C)C[C@H](N[C@@H](CCNC(=O)c1cccc(Cl)c1)C(=O)O)C(=O)O` < 6.30

Any idea what its pKi is? The compound is `CC(C)C[C@H](N[C@@H](Cc1ccn(Cc2ccccc2)n1)C(=O)O)C(=O)O` 6.30 to 7.00

Any idea what its pKi is? The compound is Cc1nc(C[C@H](NC(CC(C)C)C(=O)O)C(=O)O)cs1 (single isomer, unassigned) < 6.30

Any idea what its pKi is? The compound is `CC(C)C[C@H](N[C@@H](Cc1cccc(-c2cccc3ccccc23)c1)C(=O)O)C(=O)O` < 6.30

Any idea what its pKi is? The compound is `CC(C)C[C@H](N[C@@H](CN1CCN(Cc2cc(F)cc(F)c2)C1=O)C(=O)O)C(=O)O` 6.30 to 7.00

Any idea what its pKi is? The compound is `CCOC(=O)[C@H](Cc1cncn1Cc1cc(Cl)cc(Cl)c1)N[C@@H](CC(C)C)C(=O)O` 6.30 to 7.00

Any idea what its pKi is? The compound is `CC(C)C[C@H](N[C@@H](Cc1ccn(-c2ccccc2)n1)C(=O)O)C(=O)O` 6.30 to 7.00

Any idea what its pKi is? The compound is CC(C)CC(N[C@@H](Cc1cncn1Cc1cccc(F)c1F)C(=O)O)C(=O)O (single isomer, unassigned) [IV] < 6.30

Any idea what its pKi is? The compound is `COC(=O)[C@H](Cc1cccc(O)c1)N[C@@H](CC(C)C)C(=O)OCc1ccccc1` < 6.30

Any idea what its pKi is? The compound is `CC(C)C[C@H](N[C@@H](Cc1ccc(-c2cc(F)cc(F)c2)o1)C(=O)O)C(=O)O` < 6.30

Any idea what its pKi is? The compound is `CC(C)C[C@H](N[C@@H](Cc1cc(-c2ccccc2)on1)C(=O)O)C(=O)O` 6.30 to 7.00

Any idea what its pKi is? The compound is CC(C)CC(N[C@@H](Cc1cncn1Cc1ccc(Cl)c(Cl)c1)C(=O)O)C(=O)O (single isomer, unassigned) [GW] > 7.00

Any idea what its pKi is? The compound is `CC(C)C[C@H](N[C@@H](Cn1ccn([C@@H](C)c2ccccc2)c1=O)C(=O)O)C(=O)O` 6.30 to 7.00

Any idea what its pKi is? The compound is CC(C)CC(N[C@@H](Cc1cncn1Cc1cccc(F)c1)C(=O)O)C(=O)O (single isomer, unassigned) [JR] 6.30 to 7.00

Any idea what its pKi is? The compound is `CC(C)C[C@H](N[C@@H](Cc1ccc(Cc2cc(Cl)cc(Cl)c2)cc1)C(=O)O)C(=O)O` < 6.30

Any idea what its pKi is? The compound is Cc1ccc(Cn2cncc2C[C@H](NC(CC(C)C)C(=O)O)C(=O)O)cc1C (single isomer, unassigned) [HL] < 6.30

Any idea what its pKi is? The compound is CC(C)CC(N[C@@H](Cc1cncn1Cc1cc(Cl)cc(Cl)c1)C(=O)O)C(=O)O (single isomer, unassigned) [HE] > 7.00

Any idea what its pKi is? The compound is CC(C)CC(N[C@@H](Cc1cncn1Cc1ccc(C#N)cc1)C(=O)O)C(=O)O (single isomer, unassigned) [HA] > 7.00

Any idea what its pKi is? The compound is CC(C)CC(N[C@@H](Cc1cncn1Cc1ccc2c(c1)OCO2)C(=O)O)C(=O)O (single isomer, unassigned) [JE] > 7.00

Any idea what its pKi is? The compound is Cc1nc(C[C@H](NC(CC(C)C)C(=O)O)C(=O)O)c(Cc2ccccc2)s1 (single isomer, unassigned) [KB] 6.30 to 7.00

Any idea what its pKi is? The compound is `CC(C)C[C@H](N[C@@H](CNC(=O)c1cc2cc(Cl)ccc2[nH]1)C(=O)O)C(=O)O` < 6.30

Any idea what its pKi is? The compound is `CC(C)C[C@H](N[C@@H](Cn1ccn(CCc2cccc(F)c2)c1=O)C(=O)O)C(=O)O` 6.30 to 7.00
